target: CRTH2 (KB8 cells) (Homo sapiens, UniProt Q9Y5Y4); construct: host or cells: KB8 cells (human CRTH2 expression cell); experiment: CRTH2 antagonist test (PGD2-induced intracellular calcium ion concentration increase in KB8 cells); type: cell-based; conditions: PGD2 final concentration 100 nM, Fluo-4-AM fluorescence, read-out: antagonist activity (IC50 value, inhibition of calcium ion concentration increase)
pIC50: −log10 of the molar value.
Parameter measured: pIC50

smiles_repr=O=C(O)Cc1cnc(C(=O)c2ccc(NC(=O)c3cccc(F)c3)cc2)c2ccccc12 experimental_result="6.30 to 7.30"
smiles_repr=O=C(O)Cc1cnc(Cc2ccc(C(=O)NCCc3c(Cl)cccc3Cl)cc2)c2ccccc12 experimental_result="6.30 to 7.30"
smiles_repr=O=C(O)Cc1cnc(C(=O)c2ccc(NC(=O)c3ccc(-c4ccccc4)cc3)cc2)c2ccccc12 experimental_result="> 7.30"
smiles_repr=COc1cccc(C(=O)Nc2ccc(C(=O)c3ncc(CC(=O)O)c4ccccc34)cc2)c1 experimental_result="> 7.30"
smiles_repr=O=C(O)Cc1cnc(C(=O)c2ccc(NC(=O)c3cccc4cccnc34)cc2)c2ccccc12 experimental_result="≤ 6.00"
smiles_repr=O=C(O)Cc1cnc(Cc2ccc(C(=O)NCCNC(=O)c3ccc(Cl)cc3)cc2)c2ccccc12 experimental_result="6.30 to 7.30"
smiles_repr=O=C(O)Cc1cnc(C(=O)c2ccc(NC(=O)c3cc(F)ccc3Cl)cc2)c2ccccc12 experimental_result="6.00 to 6.30"
smiles_repr=Cc1cc(CCNC(=O)c2ccc(Cc3ncc(CC(=O)O)c4ccccc34)cc2)ccc1Cl experimental_result="> 7.30"

* * *

Target: CRTH2 (KB8 cells) (Homo sapiens)
Construct: host or cells: KB8 cells (human CRTH2 expression cell)
Sequence (Q9Y5Y4 1-395): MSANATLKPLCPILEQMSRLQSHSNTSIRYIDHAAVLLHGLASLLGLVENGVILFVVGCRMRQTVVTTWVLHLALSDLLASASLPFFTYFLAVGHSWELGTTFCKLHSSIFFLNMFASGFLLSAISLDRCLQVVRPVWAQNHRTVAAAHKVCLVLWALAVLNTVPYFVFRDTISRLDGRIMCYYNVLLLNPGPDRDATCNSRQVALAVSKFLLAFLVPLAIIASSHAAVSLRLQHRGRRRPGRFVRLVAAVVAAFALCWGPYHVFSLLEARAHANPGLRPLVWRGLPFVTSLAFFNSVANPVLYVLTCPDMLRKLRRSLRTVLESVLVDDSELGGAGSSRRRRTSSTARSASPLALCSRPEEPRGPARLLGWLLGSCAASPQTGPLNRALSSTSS
Test: CRTH2 antagonist test (PGD2-induced intracellular calcium ion concentration increase in KB8 cells)
Type: cell-based
Details: PGD2 final concentration 100 nM, Fluo-4-AM fluorescence, read-out: antagonist activity (IC50 value, inhibition of calcium ion concentration increase)
Parameter measured: IC50

molecule=O=C(O)Cc1cnc(Cc2ccc(C(=O)NCCCc3ccc(Cl)cc3)cc2)c2ccccc12 experimental_result="< 50 nM"
molecule=COc1ccc2[nH]c(C(=O)Nc3ccc(C(=O)c4ncc(CC(=O)O)c5ccccc45)cc3)cc2c1 experimental_result="< 50 nM"
molecule=O=C(O)Cc1cnc(C(=O)c2ccc(NC(=O)c3cc(F)c(F)c(F)c3F)cc2)c2ccccc12 experimental_result="500 to 1000 nM"
molecule=O=C(O)Cc1cnc(Cc2ccc(OCCCc3ccc(Cl)cc3)cc2)c2ccccc12 experimental_result="50 to 500 nM"
molecule=COc1ccc(CCNC(=O)c2ccc(Cc3ncc(CC(=O)O)c4ccccc34)cc2)cc1F experimental_result="< 50 nM"
molecule=COc1cc(CCNC(=O)c2ccc(Cc3ncc(CC(=O)O)c4ccccc34)cc2)ccc1C experimental_result="50 to 500 nM"
molecule=O=C(O)Cc1cnc(Oc2ccc(C(=O)NCCc3ccc(Cl)cc3)cc2)c2ccccc12 experimental_result="≥ 1000 nM"
molecule=O=C(O)Cc1cnc(Cc2ccc(C(=O)NCCc3ccc(Cl)c(Cl)c3)cc2)c2ccccc12 experimental_result="< 50 nM"
molecule=O=C(O)Cc1cnc(C(=O)c2ccc(NC(=O)Cc3ccc(-c4ccccc4)cc3)cc2)c2ccccc12 experimental_result="50 to 500 nM"
molecule=CCCCCc1ccc(C(=O)Nc2ccc(C(=O)c3ncc(CC(=O)O)c4ccccc34)cc2)cc1 experimental_result="< 50 nM"
molecule=CCCCCCc1ccc(C(=O)Nc2ccc(C(=O)c3ncc(CC(=O)O)c4ccccc34)cc2)cc1 experimental_result="< 50 nM"
molecule="COc1ccc(CCNC(=O)c2ccc(Cc3ncc(CC(=O)O)c4ccccc34)cc2)cc1Cl [Example 170]" experimental_result="50 to 500 nM"
molecule=O=C(O)Cc1cnc(C(=O)c2ccc(NC(=O)c3ccc4ncccc4c3)cc2)c2ccccc12 experimental_result="50 to 500 nM"
molecule=O=C(O)Cc1cnc(C(=O)c2ccc(NC(=O)c3ccc(Oc4ccccc4)cc3)cc2)c2ccccc12 experimental_result="50 to 500 nM"
molecule=COc1cc2c(CC(=O)O)cnc(C(=O)c3ccc(C(=O)NCCc4ccc(Cl)cc4)cc3)c2cc1OC experimental_result="50 to 500 nM"
molecule=CS(=O)(=O)c1ccc(CCNC(=O)c2ccc(Cc3ncc(CC(=O)O)c4ccccc34)cc2)cc1 experimental_result="≥ 1000 nM"
